# kon per record follows
- System tested: T1, MET928 (cMET protein derived from construct 25-928) (human, UniProt P08581 25-928)
- T1 construct: MET ectodomain, residues 1-24 are the leader; produced in Lec 8 cells; background text says the ectodomain is furin-cleaved into alpha (25-307) and beta chains; biotinylated form used in selections; also called MET928 extracellular domain; Met extracellular domain
- T1 sequence (P08581 25-928): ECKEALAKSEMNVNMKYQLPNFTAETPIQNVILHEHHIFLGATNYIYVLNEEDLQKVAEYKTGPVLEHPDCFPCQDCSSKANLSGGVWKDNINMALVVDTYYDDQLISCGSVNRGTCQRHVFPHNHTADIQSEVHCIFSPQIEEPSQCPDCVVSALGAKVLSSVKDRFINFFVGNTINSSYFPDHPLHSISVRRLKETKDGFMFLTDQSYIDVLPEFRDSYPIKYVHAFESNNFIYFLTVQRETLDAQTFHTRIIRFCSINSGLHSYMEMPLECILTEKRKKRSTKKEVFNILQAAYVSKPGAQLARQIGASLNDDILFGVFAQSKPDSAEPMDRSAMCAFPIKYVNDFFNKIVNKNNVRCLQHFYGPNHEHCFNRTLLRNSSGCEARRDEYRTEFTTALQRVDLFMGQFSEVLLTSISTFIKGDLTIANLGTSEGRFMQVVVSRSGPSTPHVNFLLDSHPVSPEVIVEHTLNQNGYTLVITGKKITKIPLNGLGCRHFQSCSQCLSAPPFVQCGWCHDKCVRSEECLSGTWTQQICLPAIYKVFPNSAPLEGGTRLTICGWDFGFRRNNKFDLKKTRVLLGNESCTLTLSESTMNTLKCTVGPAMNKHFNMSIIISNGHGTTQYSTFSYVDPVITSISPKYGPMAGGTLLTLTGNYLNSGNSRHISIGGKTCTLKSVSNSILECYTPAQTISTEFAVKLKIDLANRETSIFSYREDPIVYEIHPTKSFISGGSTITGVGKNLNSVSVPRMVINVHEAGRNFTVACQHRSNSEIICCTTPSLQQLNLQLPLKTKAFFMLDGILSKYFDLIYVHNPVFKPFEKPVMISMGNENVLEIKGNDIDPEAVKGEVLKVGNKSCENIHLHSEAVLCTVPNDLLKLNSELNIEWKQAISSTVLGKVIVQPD
- Protocol summary: Biacore SPR, MET-928 on chip, scFv format
Assay metric: kon (M⁻¹ s⁻¹)

Binder | Test value
107_A01 scFv (6xHis/tri-Flag tags) (scFv, 7A2 derivative, only VH CDR3 changed; not shown: 6xHis/tri-FLAG tags of pSANG10-3F) scFv: QMQLVQSGAEVKKPGAPVKVSCKVSGYTFTDYYMHWVQQAPGKGLEWMGLVDPEDGETIYAEKFQGRVTITADTSTDTAYMELSSLRSEDTAVYYCATDATTPYWGMVSWGQGTLVTVSSLEGGGGSGGGGSGGGASDIQMTQSPSSLSASVGDRVTITCQASQDISNYLNWYQQKPGRAPKVLIYDASNLETGVPSRFSGSGSGTEFTLTISNLRPDDFATYYCQQGDSFPLTFGGGTKVEIK | 4.92e+07
111_D06 scFv (6xHis/tri-Flag tags) (scFv, 7A2 derivative, only VH CDR3 changed; not shown: 6xHis/tri-FLAG tags of pSANG10-3F) scFv: QMQLVQSGAEVKKPGAPVKVSCKVSGYTFTDYYMHWVQQAPGKGLEWMGLVDPEDGETIYAEKFQGRVTITADTSTDTAYMELSSLRSEDTAVYYCATDATTPYWGMWQWGQGTLVTVSSLEGGGGSGGGGSGGGASDIQMTQSPSSLSASVGDRVTITCQASQDISNYLNWYQQKPGRAPKVLIYDASNLETGVPSRFSGSGSGTEFTLTISNLRPDDFATYYCQQGDSFPLTFGGGTKVEIK | 3.01e+07
107_A07 scFv (6xHis/tri-Flag tags) (scFv, 7A2 derivative, only VH CDR3 changed; not shown: 6xHis/tri-FLAG tags of pSANG10-3F) scFv: QMQLVQSGAEVKKPGAPVKVSCKVSGYTFTDYYMHWVQQAPGKGLEWMGLVDPEDGETIYAEKFQGRVTITADTSTDTAYMELSSLRSEDTAVYYCATDATTPYWGMMWWGQGTLVTVSSLEGGGGSGGGGSGGGASDIQMTQSPSSLSASVGDRVTITCQASQDISNYLNWYQQKPGRAPKVLIYDASNLETGVPSRFSGSGSGTEFTLTISNLRPDDFATYYCQQGDSFPLTFGGGTKVEIK | 3.31e+06
